# credit: patent US20240293588A1

# Target under test: T1, HER2 (human epidermal growth factor receptor 2) on cells (human, UniProt P04626 23-1255)
# T1 construct: whole, on cells; also called ERBB2; HER2 receptor
# Test method notes: flow cytometry (Cy5), BT-474 cells, 1 h, conjugate at 3 mM (so in the source)
Quick rule for you: MFI at 900 or higher means true (1), lower means false (0).

Recorded results for 4 binders are shown here.
Binder	Classification
[[(ε-NHCO-PEG1100)8(α-NHDOTA)4.75(α-NHCy5)0.5(α-NH2)2.75][Lys]8[Lys]4[Lys]2[Lys]-CONH-CH2-CH2-S-]2MAL-PEG3-NHCO-PEG24-CONH-PEG4-(PhTzMe)/TCO-PEG3-NHCO-PEG24-Glu … (VHH, # (unnatural amino acid, p-azido-phenylalanine, after ...QVTVSS) clicked to the DBCO of SRS-20a (linker Compound 51 on dendrimer SRS-4-Mal: maleimide core, Cy5, DOTA, PEG1100)) VHH: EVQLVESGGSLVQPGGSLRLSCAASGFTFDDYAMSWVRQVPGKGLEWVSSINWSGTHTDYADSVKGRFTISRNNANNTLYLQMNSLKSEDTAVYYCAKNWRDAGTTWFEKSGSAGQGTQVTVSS	true (1)
[(ε-NHCO-PEG1100)16(α-NHCy5)1(α-NHDOTA)8(α-NH2)7][Lys]16[Lys]8[Lys]4[Lys]2[Lys]-CONH-CH2-CH2-S-(Me)MAL-PEG24-CONH-Bn-Tz(Me)/TCO-NHCO-PEG24-(MAL)Me/Cys-Nanobody … (VHH, the additional cysteine (in …) coupled to the methylmaleimide of linker SRS-12 (intermediate SRS-14), whose TCO is joined to the tetrazine of dendron RP-5 (1 Cy5, 8 DOTA, 16 PEG1100)) VHH: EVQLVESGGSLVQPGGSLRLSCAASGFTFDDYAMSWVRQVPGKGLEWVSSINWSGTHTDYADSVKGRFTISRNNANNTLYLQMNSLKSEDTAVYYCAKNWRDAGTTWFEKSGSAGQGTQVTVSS	false (0)
[(ε-NHCO-PEG1100)16(α-DOTA)7(α-NHCy5)1(α-NH2)8][Lys]16[Lys]8[Lys]4[Lys]2[Lys]-(PN)NCO-PEG24-CONH-PEG4-(PhTzMe)/TCO-PEG3-NHCO-PEG24-Glu-DBCO/N3-Nanobody SRS-22 (VHH, # (unnatural amino acid, p-azido-phenylalanine, after ...QVTVSS) clicked to the DBCO of SRS-22a (linker Compound 51 on dendrimer HH-2: 1 Cy5, 7 DOTA, 16 PEG1100)) VHH: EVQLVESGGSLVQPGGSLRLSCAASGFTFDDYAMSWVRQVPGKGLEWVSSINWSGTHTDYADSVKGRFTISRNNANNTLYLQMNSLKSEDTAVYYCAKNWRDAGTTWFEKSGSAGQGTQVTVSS	true (1)
BHALys[Lys]2[Lys]4[Lys]8[Lys]16[((α-NH-COPEG24NH-COPEG4(PhTzMe)/TCO-PEG3-NHCO-PEG24-(MAL)Me/Cys-Nanobody)1(α-NHCy5)1(α-NHDOTA))10(α-NH2)4)(ε-NH-COPEG1000)16] … (VHH, the additional cysteine (in …) coupled to the methylmaleimide of SRS-21a (linker SRS-12 on G4 dendrimer SRS-1: 1 Cy5, 10 DOTA, 16 PEG1000)) VHH: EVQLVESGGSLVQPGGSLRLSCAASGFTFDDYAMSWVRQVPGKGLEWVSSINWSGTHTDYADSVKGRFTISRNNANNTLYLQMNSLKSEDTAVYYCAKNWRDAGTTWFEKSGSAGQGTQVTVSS	true (1)

# evaluate next
Does the binder [(ε-NHCO-PEG1100)16(α-DOTA)7(α-NHCy5)1(α-NH2)8][Lys]16[Lys]8[Lys]4[Lys]2[Lys]-(PN)NCO-PEG24-CONH-PEG4-(PhTzMe)/TCO-NHCO-PEG24-(MAL)Me/Cys-Nanobody SRS-17 (VHH, the additional cysteine (in …) coupled to the methylmaleimide of linker SRS-12 (intermediate SRS-14), whose TCO is joined to the tetrazine of dendrimer HH-2 (1 Cy5, 7 DOTA, 16 PEG1100)) VHH: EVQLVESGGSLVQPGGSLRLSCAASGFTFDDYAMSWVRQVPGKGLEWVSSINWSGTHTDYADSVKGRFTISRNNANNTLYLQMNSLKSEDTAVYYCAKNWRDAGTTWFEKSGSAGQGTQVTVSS have recorded MFI that is 900 or more?
true (1)
